Provide the reported percent of parent of each item.
B1: TMEM59 peptide (residues 268–280), wild type [modified: long spacer (Tds) at the N-terminal end, used for immobilisation; long spacer (Tds) at the N-terminal end, used for immobilisation] [not stated] / GST-HA-ATG16L1(231–607) … (parent)
chain 1: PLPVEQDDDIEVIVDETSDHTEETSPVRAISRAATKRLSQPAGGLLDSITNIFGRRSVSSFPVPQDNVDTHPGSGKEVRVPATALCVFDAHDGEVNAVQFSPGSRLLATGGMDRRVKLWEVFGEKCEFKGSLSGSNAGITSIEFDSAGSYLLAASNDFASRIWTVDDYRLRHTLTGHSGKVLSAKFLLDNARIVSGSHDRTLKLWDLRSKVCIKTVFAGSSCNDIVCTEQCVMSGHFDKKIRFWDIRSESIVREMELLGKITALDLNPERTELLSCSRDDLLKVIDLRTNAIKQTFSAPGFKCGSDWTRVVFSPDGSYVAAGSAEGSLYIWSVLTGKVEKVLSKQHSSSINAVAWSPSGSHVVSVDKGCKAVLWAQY
chain 2: YVPSEKLSIYGDL

Variants of: B1
Assay: peptide microarray
Conditions: with GST-HA-ATG16L1(231–607) [human]; ligand 800, 600, 400 nM; parent: 100
Give just the number in % WT; leave the unit off.

Exercise: For the variant chain 2 K6N , what percent of parent is on record?
Key: 2

Exercise: For the variant chain 2 L7V , what percent of parent is on record?
Key: 142

Exercise: For the variant chain 2 I9S , what percent of parent is on record?
Key: 61

Exercise: For the variant chain 2 S8M , what percent of parent is on record?
Key: 27

Exercise: For the variant chain 2 Y1P , what percent of parent is on record?
Key: 17

Exercise: For the variant chain 2 D12M , what percent of parent is on record?
Key: 93

Exercise: For the variant chain 2 E5K , what percent of parent is on record?
Key: 186

Exercise: For the variant chain 2 Y1I , what percent of parent is on record?
Key: 79

Exercise: For the variant chain 2 S8P , what percent of parent is on record?
Key: 78

Exercise: For the variant chain 2 Y1M , what percent of parent is on record?
Key: 10

Exercise: For the variant chain 2 Y1W , what percent of parent is on record?
Key: 121

Exercise: For the variant chain 2 Y10D , what percent of parent is on record?
Key: 4

Exercise: For the variant chain 2 Y10F , what percent of parent is on record?
Key: 106

Exercise: For the variant chain 2 Y10W , what percent of parent is on record?
Key: 135

Exercise: For the variant chain 2 V2L , what percent of parent is on record?
Key: 134

Exercise: For the variant chain 2 K6E , what percent of parent is on record?
Key: 3

Exercise: For the variant chain 2 Y10L , what percent of parent is on record?
Key: 36

Exercise: For the variant chain 2 G11F , what percent of parent is on record?
Key: 43

Exercise: For the variant chain 2 V2I , what percent of parent is on record?
Key: 99

Exercise: For the variant chain 2 S4N , what percent of parent is on record?
Key: 30

Exercise: For the variant chain 2 L13F , what percent of parent is on record?
Key: 173

Exercise: For the variant chain 2 I9G , what percent of parent is on record?
Key: 39

Exercise: For the variant chain 2 Y10K , what percent of parent is on record?
Key: 6

Exercise: For the variant chain 2 S8N , what percent of parent is on record?
Key: 111

Exercise: For the variant chain 2 Y1Q , what percent of parent is on record?
Key: 12

Exercise: For the variant chain 2 S8E , what percent of parent is on record?
Key: 11

Exercise: For the variant chain 2 K6R , what percent of parent is on record?
Key: 11

Exercise: For the variant chain 2 E5G , what percent of parent is on record?
Key: 142

Exercise: For the variant chain 2 S8Q , what percent of parent is on record?
Key: 113

Exercise: For the variant chain 2 G11S , what percent of parent is on record?
Key: 103

Exercise: For the variant chain 2 I9D , what percent of parent is on record?
Key: 15

Exercise: For the variant chain 2 I9A , what percent of parent is on record?
Key: 76

Exercise: For the variant chain 2 Y1L , what percent of parent is on record?
Key: 41

Exercise: For the variant chain 2 P3L , what percent of parent is on record?
Key: 189

Exercise: For the variant chain 2 G11K , what percent of parent is on record?
Key: 127

Exercise: For the variant chain 2 G11E , what percent of parent is on record?
Key: 129

Exercise: For the variant chain 2 E5W , what percent of parent is on record?
Key: 109

Exercise: For the variant chain 2 P3Q , what percent of parent is on record?
Key: 152

Exercise: For the variant chain 2 L7G , what percent of parent is on record?
Key: 86

Exercise: For the variant chain 2 D12G , what percent of parent is on record?
Key: 158

Exercise: For the variant chain 2 P3T , what percent of parent is on record?
Key: 191

Exercise: For the variant chain 2 E5Q , what percent of parent is on record?
Key: 167

Exercise: For the variant chain 2 K6M , what percent of parent is on record?
Key: 10

Exercise: For the variant chain 2 P3Y , what percent of parent is on record?
Key: 104

Exercise: For the variant chain 2 V2E , what percent of parent is on record?
Key: 11

Exercise: For the variant chain 2 L13R , what percent of parent is on record?
Key: 48
